Biological target: T1, recombinant human VEGF 165 isoform (human, UniProt P15692 27-191)
T1 construct: mature
T1 sequence (P15692 other isoform, or with tags, fused parts or gaps): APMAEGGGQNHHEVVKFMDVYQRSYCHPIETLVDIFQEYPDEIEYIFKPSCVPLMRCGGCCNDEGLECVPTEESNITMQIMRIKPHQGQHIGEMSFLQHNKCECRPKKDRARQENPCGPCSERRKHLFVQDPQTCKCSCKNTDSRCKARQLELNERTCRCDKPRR
Assay: competitive ELISA in solution, 10 pM hVEGF-165, free VEGF read with Quantikine kit
From the text: Kd calculated from the data fitted with a 5 parameter asymmetric model with Prism software.
Listed next: entries and their corresponding Kd.
Numeric answer only, unit nM assumed.

Recorded results for 4 binders are shown here.
Variant 215 (Fab variant of Clone #201) (Fab, V domains shown) VH: EVQLVESGGGLVQPGGSLRLSCAASGFDLFDYSIHWVRQAPGKGLEWVAYIYPSYGYTYYADSVKGRFTISADTSKNTAYLQMNSLRAEDTAVYYCARHAWYYGWGLDYWGQGTLVTVSS VL: DIQMTQSPSSLSASVGDRVTITCRASQAAYGRVAWYQQKPGKAPKLLIYKASELYAGVPSRFSGSRSGTDFTLTISSLQPEDFATYYCQQRGWYLFTFGQGTKVEIKR	0.027
Variant 213 (Fab variant of Clone #201) (Fab, V domains shown) VH: EVQLVESGGGLVQPGGSLRLSCAASGFDLFHYDIHWVRQAPGKGLEWVAYIYPSYGYTYYADSVKGRFTISADTSKNTAYLQMNSLRAEDTAVYYCARHAWYYGWGLDYWGQGTLVTVSS VL: DIQMTQSPSSLSASVGDRVTITCRASQAAYGRVAWYQQKPGKAPKLLIYKASELYAGVPSRFSGSRSGTDFTLTISSLQPEDFATYYCQQRGWYLFTFGQGTKVEIKR	0.091
Fab variant 216 (Fab 216, derived from Clone #201) (Fab, V domains shown) VH: EVQLVESGGGLVQPGGSLRLSCAASGFDLDHYSIHWVRQAPGKGLEWVAYIYPSYGYTYYADSVKGRFTISADTSKNTAYLQMNSLRAEDTAVYYCARHAWYYGWGLDYWGQGTLVTVSS VL: DIQMTQSPSSLSASVGDRVTITCRASQAAYGRVAWYQQKPGKAPKLLIYKASELYAGVPSRFSGSRSGTDFTLTISSLQPEDFATYYCQQRGWYLFTFGQGTKVEIKR	0.035
Variant 219 (Fab variant of Clone #201) (Fab, V domains shown, also called SI; No. 9) VH: EVQLVESGGGLVQPGGSLRLSCAASGFDLFHYSIHWVRQAPGKGLEWVAYIYPSYGYTYYADSVKGRFTISADTSKNTAYLQMNSLRAEDTAVYYCARHAWYYGWGLDYWGQGTLVTVSS VL: DIQMTQSPSSLSASVGDRVTITCRASQAAYDRVAWYQQKPGKAPKLLIYKASELYAGVPSRFSGSRSGTDFTLTISSLQPEDFATYYCQQRGWYLFTFGQGTKVEIKR	0.012

Then this binder:
I have this binder here, Variant 205 (Fab variant of Clone #201) (Fab, V domains shown) VH: EVQLVESGGGLVQPGGSLRLSCAASGFDLFHYSIHWVRQAPGKGLEWVAYIYPSYGYTYYADSVKGRFTISADTSKNTAYLQMNSLRAEDTAVYYCARHAWYYGWGLDYWGQGTLVTVSS VL: DIQMTQSPSSLSASVGDRVTITCRASQAAYGRVAWYQQKPGKAPKLLIYKDSELYAGVPSRFSGSRSGTDFTLTISSLQPEDFATYYCQQRGWYLFTFGQGTKVEIKR , and I need its recorded Kd.
0.062

Data origin: patent US20220235123A1
